Tested on: HCC1569;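 note: TDF is a line of transformed human dermal fibroblasts of mesenchymal origin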
PROTOCOL: H1.0 immunofluorescence intensity relative to DMSO (% of DMSO); higher = stronger H1.0 induction, active = 140 or more
PARTICULARS: concentration: 10 µM; 24 h
// values below are reported H1.0 immunofluorescence intensity

Here's what some known entries look like.
>>> result("CCC=CCC=CCC=CCC=CCC=CCCC(=O)OC(COCCCCCCCCCCCCCCCC)COP(=O)([O-])OCC[N+](C)(C)C (stereo not given)")
"99.4 (inactive)"
>>> result("C[N+](C)(C)CCCCCC[N+](C)(C)C.[Br-].[Br-] [Hexamethonium bromide]")
"102 (inactive)"
>>> result("Cn1ccnc1 [1-Methylimidazole]")
"98.9 (inactive)"
>>> result("CC(C)CC(NC(=O)C(O)C(N)Cc1ccccc1)C(=O)O.Cl (stereo not given) [Bestatin hydrochloride]")
"99.6 (inactive)"

Now consider the entry below.
I have this molecule here, CCCCCC(O)C=CC1OC(=O)CC(O)C1CC=CCCCC(=O)O (stereo not given) [11-Dehydro-thromboxane B2] , and I need its recorded H1.0 immunofluorescence intensity.
102 (inactive)

Cited source: the supplement of paper PMC7156485
